Test protocol: Pharmacokinetic test in rats (IV and PO)
Assay type: in vivo, male SD rats
Conditions: male, SD, rat; PO 10 mg/kg, single, plasma
Property label: half-life
State the result as a value with its unit after it.

Given the entry `CC(C)C[C@H](NC(=O)Cn1nc(-c2cccc(OCCN3CCN(c4ccccc4)CC3)c2)cc1-c1ccccc1)B(O)O.Cl` , report its measured half-life. 1.63 h

----------
Target: 20S proteasome β1 subunit (Homo sapiens, UniProt P28072+Q99436)
Construct: endogenous in cells
Test protocol: Proteasome-Glo Cell-Based assay in K562 cells, β1 subunit
Conditions: 2 h incubation
Property label: IC50 (nM)
Give bare numbers, in nM.

IC50 lookup needed for CC(C)C[C@H](NC(=O)Cn1nc(-c2cccc(OCCN3CCOCC3)c2)cc1-c1ccccc1)B(O)O.Cl [Compound 30, hydrochloride] , thanks. 2040

----------
Test protocol: Pharmacokinetic test in rats (IV and PO)
Format: in vivo, male SD rats
Conditions: male, SD, rat; IV 1 mg/kg, single, plasma
Property label: half-life (h)
Give bare numbers, in h.

What value of half-life has been reported for the following molecule? `CC(C)C[C@H](NC(=O)Cn1nc(-c2cccc(OCCN3CCN(c4ccccc4)CC3)c2)cc1-c1ccccc1)B(O)O.Cl` 7.63

----------
Test system: MDA-MB-231
Test protocol: MTT antitumor spectrum, MDA-MB-231
Format: cell-based
Conditions: Homo sapiens, 72 h
Property label: IC50 (nM)
Numbers only, in nM.

Please report the recorded IC50 for CC(C)C[C@H](NC(=O)Cn1nc(-c2cccc(OCCN3CCOCC3)c2)cc1-c1ccccc1)B(O)O.Cl [Compound 30, hydrochloride] . 940

----------
System: colorectal cancer cell line HCT116
Test protocol: CellTiter-Glo tumor cell proliferation, HCT116
Format: cell-based, human
Conditions: Homo sapiens, HCT-116; 1 μM, 72 h; read-out: Inhibition rate HCT116 (%)
Property label: inhibition at 1 µM (%)
One number for each entry, in %.

{"Molecule": "Cc1cccc(S(=O)(=O)Oc2ccccc2-c2cc(-c3ccccc3)n(CC(=O)N[C@@H](CC(C)C)B(O)O)n2)c1 [Compound 8]", "Target": "colorectal cancer cell line HCT116", "inhibition at 1 µM / %": 2.1}
{"Molecule": "CC(C)C[C@H](NC(=O)Cn1nc(-c2cccc(OS(=O)(=O)c3cccc(C(F)(F)F)c3)c2)cc1-c1ccccc1)B(O)O [Compound 11]", "Target": "colorectal cancer cell line HCT116", "inhibition at 1 µM / %": 95.4}
{"Molecule": "CC(C)C[C@H](NC(=O)Cn1nc(-c2ccccc2OS(=O)(=O)c2cccc(C(F)(F)F)c2)cc1-c1ccccc1)B(O)O [Compound 1]", "Target": "colorectal cancer cell line HCT116", "inhibition at 1 µM / %": 13.1}

// for each molecule in input: emit inhibition at 1 µM
1. CC(C)C[C@H](NC(=O)Cn1nc(-c2ccccc2OS(=O)(=O)c2cccc(C(F)(F)F)c2)cc1-c1ccc(S(C)(=O)=O)cc1)B(O)O [Compound 19]
2. CC(C)C[C@H](NC(=O)Cn1nc(-c2ccccc2OS(=O)(=O)c2cccc(C(F)(F)F)c2)cc1-c1ccc(OCc2ccccc2)cc1)B(O)O [Compound 23]
3. CC(C)C[C@H](NC(=O)Cn1nc(-c2ccccc2OS(=O)(=O)c2cccs2)cc1-c1ccccc1)B(O)O [Compound 9]
4. CC(C)C[C@H](NC(=O)Cn1nc(-c2ccccc2OS(=O)(=O)c2cccc(C(F)(F)F)c2)cc1-c1ccc(-c2ccccc2)cc1)B(O)O [Compound 22]
5. COc1ccc(-c2cc(-c3ccccc3OS(=O)(=O)c3cccc(C(F)(F)F)c3)nn2CC(=O)N[C@@H](CC(C)C)B(O)O)cc1 [Compound 21]
6. CC(C)C[C@H](NC(=O)Cn1nc(-c2ccccc2OS(=O)(=O)c2cccc(C(F)(F)F)c2)cc1-c1ccco1)B(O)O [Compound 24]

1. 14.5
2. 2.6
3. 2.9
4. 3.9
5. 11.4
6. 4.9

Dear reader, for each entry below, please note its inhibition at 1 µM.
1. CC(C)C[C@H](NC(=O)Cn1nc(-c2ccccc2OS(=O)(=O)c2cccc(F)c2)cc1-c1ccccc1)B(O)O [Compound 4]
2. CC(C)C[C@H](NC(=O)Cn1nc(-c2ccccc2OS(=O)(=O)c2cccc(C(F)(F)F)c2)cc1-c1cccc(Br)c1)B(O)O [Compound 14]

1: 6.2; 2: 9.9

# inhibition at 1 µM lookup, item CC(C)C[C@H](NC(=O)Cn1nc(-c2ccccc2OS(=O)(=O)c2cccc(Br)c2)cc1-c1ccccc1)B(O)O [Compound 6] 5.9
